A collection of compounds and their measured Hot Plate .5 hr (percentage of mice showing analgesia)
- System: mice
- settings: mouse, in vivo, ip; note: test concentration or dose not given here
Lab note: record the figure alone, no unit after it.

Example compounds with recorded Hot Plate .5 hr (percentage of mice showing analgesia):
>  <structure>
COc1ccc(Cl)c2c1CCC(CN1CCN(CCO)CC1)=C2

>  <test.result>
50

$$$$
>  <structure>
COc1ccc(Cl)c2c1CCC(CN1CCC(O)(c3ccc(Cl)cc3)CC1)=C2

>  <test.result>
20

$$$$
>  <structure>
CCC(=O)OC1CCN(CC2=Cc3c(Cl)ccc(OC)c3CC2)CC1

>  <test.result>
0

$$$$
>  <structure>
CNC(=O)C1CCN(CC2=Cc3c(Cl)ccc(OC)c3CC2)CC1

>  <test.result>
60

$$$$

Q: Which Hot Plate .5 hr (percentage of mice showing analgesia) value belongs to COc1ccc(Cl)c2c1CCC(CN1CCN(C)CC1)=C2 ?
Ans: 60

Q: Which Hot Plate .5 hr (percentage of mice showing analgesia) value belongs to COc1ccc(Cl)c2c1CCC(CN1CCC(O)CC1)=C2 ?
Ans: 0

###

- System: mice
- settings: mouse, in vivo, ip
metric: Hot Plate 2 hr (percentage of mice showing analgesia)
Lab note: record the figure alone, no unit after it.

Example compounds with recorded Hot Plate 2 hr (percentage of mice showing analgesia):
>  <compound>
COc1ccc(Cl)c2c1CCC(CN1CCCC1)=C2

>  <test.result>
0

$$$$
>  <compound>
COc1ccc(Cl)c2c1CCC(CN1CCC(c3ccccc3)CC1)=C2

>  <test.result>
0

$$$$
>  <compound>
CCOC(=O)N1CCN(CC2=Cc3c(Cl)ccc(OC)c3CC2)CC1

>  <test.result>
40

$$$$
>  <compound>
COc1ccc(Cl)c2c1CCC(CN1CCN(c3cccc(C(F)(F)F)c3)CC1)=C2

>  <test.result>
0

$$$$
>  <compound>
COc1ccc(Cl)c2c1CCC(CN1CCC(C(=O)N3CCCCC3)CC1)=C2

>  <test.result>
0

$$$$

Q: Which Hot Plate 2 hr (percentage of mice showing analgesia) value belongs to COc1ccc(Cl)c2c1CCC(CN1CCC(O)(c3ccc(Cl)cc3)CC1)=C2 ?
Ans: 0

Q: Which Hot Plate 2 hr (percentage of mice showing analgesia) value belongs to COc1ccc(Cl)c2c1CCC(CN1CCC(C(N)=O)CC1)=C2 ?
Ans: 70

Q: Which Hot Plate 2 hr (percentage of mice showing analgesia) value belongs to COc1ccc(Cl)c2c1CCC(CN1CCC(OC(C)=O)(c3ccccc3)CC1)=C2 [drawing 79] ?
Ans: 80

Q: Which Hot Plate 2 hr (percentage of mice showing analgesia) value belongs to COc1ccc(Cl)c2c1CCC(CN1CCSC1)=C2 ?
Ans: 0

Q: Which Hot Plate 2 hr (percentage of mice showing analgesia) value belongs to COc1ccc(Cl)c2c1CCC(CN1CCC(NC(=O)N3CCCCC3)CC1)=C2 ?
Ans: 0

###

- Test system: mice
- settings: mouse, in vivo, ip
metric: Hot Plate .5 hr (percentage of mice showing analgesia)
Lab note: record the figure alone, no unit after it.

Example compounds with recorded Hot Plate .5 hr (percentage of mice showing analgesia):
>  <compound>
CCOC(=O)N1CCN(CC2=Cc3c(Cl)ccc(OC)c3CC2)CC1

>  <test.result>
70

$$$$
>  <compound>
COc1ccc(Cl)c2c1CCC(CN1CCC(OC(C)=O)(c3ccccc3)CC1)=C2 [drawing 79]

>  <test.result>
100

$$$$
>  <compound>
COc1ccc(Cl)c2c1CCC(CN1CCC(C(=O)N3CCCCC3)CC1)=C2

>  <test.result>
20

$$$$
>  <compound>
COc1ccc(Cl)c2c1CCC(CN1CCN(c3ccc(Cl)cc3)CC1)=C2

>  <test.result>
10

$$$$
>  <compound>
COc1ccc(Cl)c2c1CCC(CN1CCSC1)=C2

>  <test.result>
0

$$$$
>  <compound>
COc1ccc(Cl)c2c1CCC(CN1CCC(c3ccccc3)CC1)=C2

>  <test.result>
30

$$$$

Q: Which Hot Plate .5 hr (percentage of mice showing analgesia) value belongs to COc1ccc(Cl)c2c1CCC(CN1CCC(O)(c3ccccc3)CC1)=C2 ?
Ans: 50

Q: Which Hot Plate .5 hr (percentage of mice showing analgesia) value belongs to CCC(=O)O[C@](Cc1ccccc1)(c1ccccc1)[C@H](C)CN(C)C [d-Propoxyphene, reference compound] ?
Ans: 60

Q: Which Hot Plate .5 hr (percentage of mice showing analgesia) value belongs to COc1ccc(Cl)c2c1CCC(CN1CCC(C)CC1)=C2 ?
Ans: 10

Q: Which Hot Plate .5 hr (percentage of mice showing analgesia) value belongs to COc1ccc(Cl)c2c1CCC(CN1CCN(c3cccc(C(F)(F)F)c3)CC1)=C2 ?
Ans: 10

###

- Tested on: mice
- settings: mouse, in vivo, ip
metric: Tail Flick .5 hr (percentage of analgesia response)
Lab note: record the figure alone, no unit after it.

Example molecules with recorded Tail Flick .5 hr (percentage of analgesia response):
>  <molecule>
COc1ccc(Cl)c2c1CCC(CN1CCC(c3ccccc3)CC1)=C2

>  <test.result>
0

$$$$
>  <molecule>
COc1ccc(Cl)c2c1CCC(CN1CCN(c3cccc(C(F)(F)F)c3)CC1)=C2

>  <test.result>
0

$$$$

Q: Form field: Tail Flick .5 hr (percentage of analgesia response) recorded for COc1ccc(Cl)c2c1CCC(CN1CCC(O)(c3ccccc3)CC1)=C2 with mice (enter value)
Ans: 30

Q: Form field: Tail Flick .5 hr (percentage of analgesia response) recorded for COc1ccc(Cl)c2c1CCC(CN1CCN(c3ccc(Cl)cc3)CC1)=C2 with mice (enter value)
Ans: 0

Q: Form field: Tail Flick .5 hr (percentage of analgesia response) recorded for COc1ccc(Cl)c2c1CCC(CN1CCCC1)=C2 [pyrrolidino] with mice (enter value)
Ans: 60

###

- Tested on: mice
- settings: mouse, in vivo, ip
API: label(entry) gives True if the entry's Hot Plate .5 hr (percentage of mice showing analgesia) is strictly smaller than 20; on equality or larger values it gives False.

Example results:
>  <molecule>
COc1ccc(Cl)c2c1CCC(CN1CCC(C(=O)N3CCCC3)CC1)=C2

>  <assigned.category>
False

$$$$
>  <molecule>
COc1ccc(Cl)c2c1CCC(CN1CCC(NC(=O)N3CCCCC3)CC1)=C2

>  <assigned.category>
True

$$$$
>  <molecule>
COc1ccc(Cl)c2c1CCC(CNCC1CC1)=C2

>  <assigned.category>
False

$$$$
>  <molecule>
COc1ccc(N2CCN(CC3=Cc4c(Cl)ccc(OC)c4CC3)CC2)cc1

>  <assigned.category>
True

$$$$
>  <molecule>
COc1ccc(Cl)c2c1CCC(CN1CCC(C(N)=O)CC1)=C2

>  <assigned.category>
False

$$$$
>  <molecule>
COc1ccc(Cl)c2c1CCC(CN(C)C)=C2

>  <assigned.category>
True

$$$$

Q: hey, is Hot Plate .5 hr (percentage of mice showing analgesia) for COc1ccc(Cl)c2c1CCC(CN(C)CCN1CCCC1)=C2 lower than 20 or not?
Ans: True

Q: hey, is Hot Plate .5 hr (percentage of mice showing analgesia) for COc1ccc(Cl)c2c1CCC(CN1CC=C(c3ccc(Cl)cc3)CC1)=C2 lower than 20 or not?
Ans: True

Q: hey, is Hot Plate .5 hr (percentage of mice showing analgesia) for COc1ccc(Cl)c2c1CCC(CN1CCCC(C(N)=O)C1)=C2 (centres unmarked) lower than 20 or not?
Ans: True

Q: hey, is Hot Plate .5 hr (percentage of mice showing analgesia) for CCOC1(c2ccccc2)CCN(CC2=Cc3c(Cl)ccc(OC)c3CC2)CC1 lower than 20 or not?
Ans: False

Q: hey, is Hot Plate .5 hr (percentage of mice showing analgesia) for COc1ccc(Cl)c2c1CCC(CN1CCCC1)=C2 lower than 20 or not?
Ans: False

###

- System: mice
- settings: mouse, in vivo, ip
A collection of molecules and their measured Tail Flick .5 hr (percentage of analgesia response)
Lab note: record the figure alone, no unit after it.

Q: Which Tail Flick .5 hr (percentage of analgesia response) value belongs to COc1ccc(Cl)c2c1CCC(CN1CCC(C(N)=O)CC1)=C2 ?
Ans: 70

Q: Which Tail Flick .5 hr (percentage of analgesia response) value belongs to COc1ccc(Cl)c2c1CCC(CN1CCN(C)CC1)=C2 ?
Ans: 30

Q: Which Tail Flick .5 hr (percentage of analgesia response) value belongs to CCC(=O)O[C@](Cc1ccccc1)(c1ccccc1)[C@H](C)CN(C)C [d-Propoxyphene, reference compound] ?
Ans: 40

Q: Which Tail Flick .5 hr (percentage of analgesia response) value belongs to COc1ccc(Cl)c2c1CCC(CN1CCCC(C(N)=O)C1)=C2 (stereo not shown) ?
Ans: 0

Q: Which Tail Flick .5 hr (percentage of analgesia response) value belongs to COc1ccc(Cl)c2c1CCC(CN1CCC(O)CC1)=C2 ?
Ans: 0

Q: Which Tail Flick .5 hr (percentage of analgesia response) value belongs to COc1ccc(Cl)c2c1CCC(CN1CCC(O)(c3ccc(Cl)cc3)CC1)=C2 ?
Ans: 0
